# TESTED_SYSTEM: Tyrosine-protein kinase Lck (Homo sapiens) (UniProt P06239)
# Sequence (P06239 2-509 limits assumed): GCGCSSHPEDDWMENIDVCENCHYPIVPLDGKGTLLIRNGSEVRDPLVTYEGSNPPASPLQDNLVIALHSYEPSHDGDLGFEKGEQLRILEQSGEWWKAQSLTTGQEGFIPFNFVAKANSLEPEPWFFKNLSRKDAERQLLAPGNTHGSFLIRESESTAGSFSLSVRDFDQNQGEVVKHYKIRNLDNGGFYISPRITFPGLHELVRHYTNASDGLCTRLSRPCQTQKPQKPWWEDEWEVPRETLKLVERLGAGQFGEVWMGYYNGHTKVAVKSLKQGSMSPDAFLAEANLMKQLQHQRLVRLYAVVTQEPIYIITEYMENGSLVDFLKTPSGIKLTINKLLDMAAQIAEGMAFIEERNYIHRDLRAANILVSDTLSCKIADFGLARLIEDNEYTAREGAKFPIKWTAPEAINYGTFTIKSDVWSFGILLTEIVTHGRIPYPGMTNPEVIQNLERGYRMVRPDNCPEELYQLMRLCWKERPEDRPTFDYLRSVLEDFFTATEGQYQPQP
# ASSAY_TEXT: In vitro percent inhibition of p56 Lck tyrosine kinase at 10 uM concentration of compound dissolved in 100% DMSO using 5''-[gamma-33P]-triphosphate
VALUE_KIND: inhibition
Please state the number and follow it with the unit.

Record summary for "c1csc(-c2nc3cc4c(cc3nc2-c2cccs2)OCCCO4)c1" : reported inhibition = 39%

Measured inhibition of "O=C(O)c1ccc2cc3nc(-c4cccs4)c(-c4cccs4)nc3cc2c1" : 47%

The measured inhibition associated with "COc1cc2nc3nc(-c4cccs4)c(-c4cccs4)nc3nc2cc1OC" reads -7%

Kindly note the recorded inhibition for "Oc1cc2nc(-c3cccs3)c(-c3cccs3)nc2cc1O" , which is 1%

Summary for this molecule, "COc1cc2nc(-c3cccs3)c(-c3cccs3)nc2cc1OC" : inhibition is 9%

The reported inhibition of the molecule "COC(=O)CCCc1ccc(-c2nc3cc4ccccc4cc3nc2-c2ccc(CCCC(=O)OC)s2)s1" was 2%

For "COC(=O)Cc1csc(-c2nc3cc4ccccc4cc3nc2-c2cc(CC(=O)OC)cs2)c1" the molecule record lists inhibition as 4%

Input "COC(=O)CCc1ccc(-c2nc3cc4ccccc4cc3nc2-c2ccc(CCC(=O)OC)s2)s1" . Output inhibition: 5%

Given item "c1csc(-c2nc3cc4c(cc3nc2-c2cccs2)OCO4)c1" , the value recorded as its inhibition is 41%

Sure, the documented inhibition for "c1csc(-c2nc3cc4c(cc3nc2-c2cccs2)OCCO4)c1" is 53%

For reference, reported inhibition for "O=C(O)CCc1ccc(-c2nc3cc4ccccc4cc3nc2-c2ccc(CCC(=O)O)s2)s1" stands at -3%

According to the records, this molecule O=C(O)C1COc2cc3nc(-c4cccs4)c(-c4cccs4)nc3cc2O1 (stereo not given) displays inhibition of -2%

The recorded inhibition for entry "O=C(O)CCCc1ccc(-c2nc3cc4ccccc4cc3nc2-c2ccc(CCCC(=O)O)s2)s1" equals 9%

# molecule "O=C(O)Cc1ccc(-c2nc3cc4ccccc4cc3nc2-c2ccc(CC(=O)O)s2)s1" ; its inhibition = -9%

Documented inhibition of "O=C(O)Cc1csc(-c2nc3cc4ccccc4cc3nc2-c2cc(CC(=O)O)cs2)c1" : 8%

---

What inhibition was measured for each of the following?
# TESTED_SYSTEM: Inhibitor of nuclear factor kappa-B kinase subunit beta (Homo sapiens)
# ASSAY_TEXT: In vitro percent inhibition of I-kappa-B-kinase beta at 10 uM concentration of compound dissolved in 100% DMSO using 5''-[gamma-33P]-triphosphate
Numbers only; they are read as %.

Lab book: inhibition of "c1csc(-c2nc3cc4c(cc3nc2-c2cccs2)OCCO4)c1" noted as 38

According to the records, this molecule "c1csc(-c2nc3cc4ccccc4cc3nc2-c2cccs2)c1" displays inhibition of 6

Field inhibition (entry "O=C(O)CCCc1ccc(-c2nc3cc4ccccc4cc3nc2-c2ccc(CCCC(=O)O)s2)s1" ) reads 43

The measured inhibition associated with O=C(O)C1COc2cc3nc(-c4cccs4)c(-c4cccs4)nc3cc2O1 (configuration not stated) reads 14

"COC(=O)Cc1csc(-c2nc3cc4ccccc4cc3nc2-c2cc(CC(=O)OC)cs2)c1" has a reported inhibition of 14

molecule "COc1cc2nc(-c3cccs3)c(-c3cccs3)nc2cc1OC" , inhibition observed: 10

For record "COC(=O)CCc1ccc(-c2nc3cc4ccccc4cc3nc2-c2ccc(CCC(=O)OC)s2)s1" the listed inhibition is 31

---

# TESTED_SYSTEM: Epidermal growth factor receptor (Homo sapiens) (UniProt P00533)
# Sequence (P00533 whole entry): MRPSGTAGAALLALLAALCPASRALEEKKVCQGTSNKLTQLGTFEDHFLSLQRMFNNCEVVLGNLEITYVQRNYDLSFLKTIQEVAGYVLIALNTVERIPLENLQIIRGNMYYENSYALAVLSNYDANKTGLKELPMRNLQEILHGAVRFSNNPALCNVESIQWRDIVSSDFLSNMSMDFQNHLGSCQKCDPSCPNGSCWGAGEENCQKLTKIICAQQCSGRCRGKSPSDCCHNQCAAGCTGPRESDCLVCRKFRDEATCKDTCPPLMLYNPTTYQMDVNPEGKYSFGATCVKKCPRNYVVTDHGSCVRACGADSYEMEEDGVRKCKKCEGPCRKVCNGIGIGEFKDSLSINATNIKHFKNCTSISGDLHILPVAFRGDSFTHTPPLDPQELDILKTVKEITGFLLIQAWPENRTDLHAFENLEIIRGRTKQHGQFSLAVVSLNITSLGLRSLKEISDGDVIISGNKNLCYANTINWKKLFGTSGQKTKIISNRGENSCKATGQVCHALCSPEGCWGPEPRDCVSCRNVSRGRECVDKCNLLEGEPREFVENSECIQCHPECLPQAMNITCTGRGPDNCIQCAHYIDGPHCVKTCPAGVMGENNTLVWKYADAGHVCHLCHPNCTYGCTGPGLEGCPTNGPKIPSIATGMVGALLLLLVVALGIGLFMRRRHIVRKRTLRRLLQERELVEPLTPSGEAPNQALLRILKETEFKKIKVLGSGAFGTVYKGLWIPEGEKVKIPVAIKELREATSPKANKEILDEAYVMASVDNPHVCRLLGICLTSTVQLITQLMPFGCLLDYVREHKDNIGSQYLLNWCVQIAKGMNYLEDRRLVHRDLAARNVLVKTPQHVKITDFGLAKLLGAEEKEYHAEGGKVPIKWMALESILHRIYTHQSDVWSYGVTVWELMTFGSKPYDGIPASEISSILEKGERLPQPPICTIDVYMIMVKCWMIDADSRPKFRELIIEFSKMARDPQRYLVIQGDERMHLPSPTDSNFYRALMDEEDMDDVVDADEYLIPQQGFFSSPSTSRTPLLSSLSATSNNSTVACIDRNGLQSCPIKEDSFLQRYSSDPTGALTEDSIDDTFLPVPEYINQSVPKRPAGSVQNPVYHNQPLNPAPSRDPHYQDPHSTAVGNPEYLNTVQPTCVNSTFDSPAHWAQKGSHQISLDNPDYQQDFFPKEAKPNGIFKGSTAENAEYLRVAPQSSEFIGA
# MEASUREMENT_SETUP: 10 uM
Provide the recorded inhibition for the entries that follow.
The response must be a number in % with no trailing unit.

Given item "COc1cc2nc(-c3cccs3)c(-c3cccs3)nc2cc1OC" , the value recorded as its inhibition is 10

Briefly, inhibition measured for "Oc1cc2nc(-c3cccs3)c(-c3cccs3)nc2cc1O" : 25

Form: molecule = "COC(=O)CCCc1ccc(-c2nc3cc4ccccc4cc3nc2-c2ccc(CCCC(=O)OC)s2)s1" ; inhibition = 8

Entry "O=C(O)CCc1ccc(-c2nc3cc4ccccc4cc3nc2-c2ccc(CCC(=O)O)s2)s1" ; inhibition = 40

Record "O=C(O)CCCc1ccc(-c2nc3cc4ccccc4cc3nc2-c2ccc(CCCC(=O)O)s2)s1" , field inhibition: 32

In plain terms, O=C(O)C1COc2cc3nc(-c4cccs4)c(-c4cccs4)nc3cc2O1 (configuration not stated) has a documented inhibition of 39

For this molecule ( "c1csc(-c2nc3cc4c(cc3nc2-c2cccs2)OCO4)c1" ), measured inhibition is 35

Sample "c1csc(-c2nc3cc4c(cc3nc2-c2cccs2)OCCO4)c1" ; inhibition observed: 34

Query "COC(=O)Cc1csc(-c2nc3cc4ccccc4cc3nc2-c2cc(CC(=O)OC)cs2)c1" yields inhibition of 11

Recorded result, "O=C(O)Cc1csc(-c2nc3cc4ccccc4cc3nc2-c2cc(CC(=O)O)cs2)c1" , inhibition: 54

Form field inhibition, entry "O=C(O)c1ccc(-c2nc3cc4ccccc4cc3nc2-c2ccc(C(=O)O)s2)s1" : 49

"COC(=O)CCc1ccc(-c2nc3cc4ccccc4cc3nc2-c2ccc(CCC(=O)OC)s2)s1" has a reported inhibition of 32

The reported value for "O=C(O)c1ccc2cc3nc(-c4cccs4)c(-c4cccs4)nc3cc2c1" in terms of inhibition is 40

Briefly, inhibition measured for "c1csc(-c2nc3cc4ccccc4cc3nc2-c2cccs2)c1" : 6

Reported inhibition of "O=C(O)Cc1ccc(-c2nc3cc4ccccc4cc3nc2-c2ccc(CC(=O)O)s2)s1" : 52

Summary for this molecule, "COc1cc2nc3nc(-c4cccs4)c(-c4cccs4)nc3nc2cc1OC" : inhibition is 20

Record "c1csc(-c2nc3cc4c(cc3nc2-c2cccs2)OCCCO4)c1" , field inhibition: 26

---

# TESTED_SYSTEM: Glycogen synthase kinase-3 beta (Homo sapiens) (UniProt P49841)
# Sequence (P49841 whole entry, looked up): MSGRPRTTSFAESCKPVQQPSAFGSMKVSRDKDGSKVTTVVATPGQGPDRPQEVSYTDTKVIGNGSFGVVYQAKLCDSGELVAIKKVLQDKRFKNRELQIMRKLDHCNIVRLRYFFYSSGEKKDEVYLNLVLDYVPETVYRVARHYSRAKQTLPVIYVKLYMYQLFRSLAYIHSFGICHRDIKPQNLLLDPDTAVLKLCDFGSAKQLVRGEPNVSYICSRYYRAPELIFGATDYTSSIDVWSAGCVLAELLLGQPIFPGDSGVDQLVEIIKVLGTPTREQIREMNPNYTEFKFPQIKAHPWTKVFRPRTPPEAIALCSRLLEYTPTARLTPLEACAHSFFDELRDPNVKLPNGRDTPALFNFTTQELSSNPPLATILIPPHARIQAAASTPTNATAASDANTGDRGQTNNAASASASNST
# ASSAY_TEXT: In vitro percent inhibition of Glycogen synthase kinase 3 beta at 10 uM concentration of compound dissolved in 100% DMSO using 5''-[gamma-33P]-triphosphate
VALUE_KIND: inhibition (%)
The response must be a number in % with no trailing unit.

The molecule listed as "COC(=O)CCc1ccc(-c2nc3cc4ccccc4cc3nc2-c2ccc(CCC(=O)OC)s2)s1" shows inhibition equal to 7

inhibition in this record for "O=C(O)Cc1ccc(-c2nc3cc4ccccc4cc3nc2-c2ccc(CC(=O)O)s2)s1" : 47

Query "c1csc(-c2nc3cc4ccccc4cc3nc2-c2cccs2)c1" yields inhibition of 6

The recorded inhibition for O=C(O)C1COc2cc3nc(-c4cccs4)c(-c4cccs4)nc3cc2O1 (stereo not given) is 33

Noted for "c1csc(-c2nc3cc4c(cc3nc2-c2cccs2)OCO4)c1" : its inhibition reads -1

Lab note: "COc1cc2nc3nc(-c4cccs4)c(-c4cccs4)nc3nc2cc1OC" gave inhibition of 4

Per the records, this molecule ( "COC(=O)Cc1csc(-c2nc3cc4ccccc4cc3nc2-c2cc(CC(=O)OC)cs2)c1" ) has inhibition equal to 2

Entry under test: "O=C(O)c1ccc(-c2nc3cc4ccccc4cc3nc2-c2ccc(C(=O)O)s2)s1" . Its inhibition was 51

Measured inhibition, "O=C(O)Cc1csc(-c2nc3cc4ccccc4cc3nc2-c2cc(CC(=O)O)cs2)c1" : 22

get_value(item= "COC(=O)CCCc1ccc(-c2nc3cc4ccccc4cc3nc2-c2ccc(CCCC(=O)OC)s2)s1" , readout=inhibition) returns 24

---

# TESTED_SYSTEM: Mitogen-activated protein kinase 8 (Homo sapiens)
# ASSAY_TEXT: In vitro percent inhibition of c-Jun N-terminal kinase 1-alpha 1 at 10 uM concentration of compound dissolved in 100% DMSO using 5''-[gamma-33P]-triphosphate
VALUE_KIND: inhibition (%)
Numbers only; they are read as %.

Summary: "c1csc(-c2nc3cc4c(cc3nc2-c2cccs2)OCO4)c1" , Mitogen-activated protein kinase 8 (Homo sapiens), inhibition = 18

# inhibition measured on Mitogen-activated protein kinase 8 (Homo sapiens) for item "COC(=O)Cc1csc(-c2nc3cc4ccccc4cc3nc2-c2cc(CC(=O)OC)cs2)c1" = -10

Tested on Mitogen-activated protein kinase 8 (Homo sapiens), the item "O=C(O)CCc1ccc(-c2nc3cc4ccccc4cc3nc2-c2ccc(CCC(=O)O)s2)s1" showed inhibition equal to -5

For the compound "O=C(O)Cc1ccc(-c2nc3cc4ccccc4cc3nc2-c2ccc(CC(=O)O)s2)s1" , the measured inhibition on Mitogen-activated protein kinase 8 (Homo sapiens) was -3

Record "COC(=O)CCCc1ccc(-c2nc3cc4ccccc4cc3nc2-c2ccc(CCCC(=O)OC)s2)s1" ; system Mitogen-activated protein kinase 8 (Homo sapiens); inhibition = 9
